System: velvetleaf
Method Notes: Test A pre-/postemergence greenhouse test
Format: in vivo, Abutilon theophrasti
Assay Setup: Preemergence, 125 g ai/ha; 0 to 100 scale, 0 no effect, 100 complete control
Reported Metric: Velvetleaf plant response rating
The response must contain the number and no unit.

- Compound: "CC(Oc1c(CS(=O)(=O)c2ccc(Cl)c[n+]2[O-])c(C(F)(F)F)nn1C)C(F)(F)F (centres unmarked)"
  Velvetleaf plant response rating: 0
- Compound: "Cn1nc(C(F)(F)F)c(C[S+]([O-])c2cc(F)cc[n+]2[O-])c1Cl (racemic)"
  Velvetleaf plant response rating: 10
- Compound: "Cn1nc(C(F)(F)F)c(C[S+]([O-])c2c(F)ccc[n+]2[O-])c1Cl (centres unmarked)"
  Velvetleaf plant response rating: 0
- Compound: "Cn1nc(C(F)(F)F)c(CS(=O)(=O)c2cc(C3CC3)cc[n+]2[O-])c1OC(F)F"
  Velvetleaf plant response rating: 20
- Compound: "Cn1nc(C(F)(F)F)c(CS(=O)(=O)c2ccc(F)c[n+]2[O-])c1OCC(F)(F)F"
  Velvetleaf plant response rating: 0

-- ask Which Velvetleaf plant response rating is listed for Cn1nc(C(F)(F)F)c(C[S+]([O-])c2ccc(Cl)c[n+]2[O-])c1OCC(F)(F)C(F)(F)F (centres unmarked) ?
-- reply 10

-- ask Which Velvetleaf plant response rating is listed for Cc1cc[n+]([O-])c(S(=O)(=O)Cc2c(C(F)(F)F)nn(C)c2OC(C)C(F)(F)F)c1 (centres unmarked) ?
-- reply 40

-- ask Which Velvetleaf plant response rating is listed for Cc1cc[n+]([O-])c([S+]([O-])Cc2c(C(F)(F)F)nn(C)c2OCC(F)F)c1 (centres unmarked) ?
-- reply 10
